List of log10 of GI50 values.
tested on: MCF-7 breast; test: In vitro cytotoxicity MTT assay, MCF-7 breast; type: cell-based; settings: 72 h drug exposure, n = 3
quantityKind: log10 of GI50 (log10 of the value in nM)

compound	log10 of GI50
Cc1c(C)c2cccnc2c2ncccc12.N[C@H]1CCCC[C@@H]1N.[Cl-].[Cl-].[Pt+2]	1.52
Cc1c(C)c2cccnc2c2ncccc12.N[C@H]1CCCC[C@@H]1N.O=[N+]([O-])[O-].O=[N+]([O-])[O-].[OH-].[OH-].[Pt+4]	2.68
CC(=O)Oc1ccccc1C(=O)[O-].Cc1c(C)c2cccnc2c2ncccc12.N[C@H]1CCCC[C@@H]1N.O=[N+]([O-])[O-].O=[N+]([O-])[O-].[OH-].[Pt+4]	1.56
COc1ccc2c(c1)c(CC(=O)[O][Pt-2]13([OH])([NH2+]C4CCCCC4[NH2+]1)[n+]1cccc4ccc5ccc[n+]3c5c41)c(C)n2C(=O)c1ccc(Cl)cc1.O=[N+]([O-])[O-].O=[N+]([O-])[O-] (stereo not drawn)	2.87
COc1ccc2c(c1)c(CC(=O)[O][Pt-2]13([OH])([NH2+]C4CCCCC4[NH2+]1)[n+]1cccc4c(C)c(C)c5ccc[n+]3c5c41)c(C)n2C(=O)c1ccc(Cl)cc1.O=[N+]([O-])[O-].O=[N+]([O-])[O-] (stereo not drawn)	1.57
N[C@H]1CCCC[C@@H]1N.[Cl-].[Cl-].[Pt+2].c1cnc2c(c1)ccc1cccnc12	2.40

====

List of GI50 values.
tested on: MCF10A breast cell line (non-tumour derived); test: In vitro cytotoxicity MTT assay, non-tumour MCF10A breast; type: cell-based; conditions: MCF10A (non-cancerous), 72 h drug exposure, n = 3

compound	assayTarget	GI50, nM
COc1ccc2c(c1)c(CC(=O)[O][Pt-2]13([OH])([NH2+]C4CCCCC4[NH2+]1)[n+]1cccc4ccc5ccc[n+]3c5c41)c(C)n2C(=O)c1ccc(Cl)cc1.O=[N+]([O-])[O-].O=[N+]([O-])[O-] (centres unmarked)	MCF10A breast cell line (non-tumour derived)	340
COc1ccc2c(c1)c(CC(=O)[O][Pt-2]13([OH])([NH2+]C4CCCCC4[NH2+]1)[n+]1cccc4c(C)c(C)c5ccc[n+]3c5c41)c(C)n2C(=O)c1ccc(Cl)cc1.O=[N+]([O-])[O-].O=[N+]([O-])[O-] (centres unmarked)	MCF10A breast cell line (non-tumour derived)	23

====

List of GI50 values.
tested on: A431 skin; assay: In vitro cytotoxicity MTT assay, A431 skin; format: cell-based; conditions: 72 h drug exposure, n = 3

molecule	GI50 / nM
Cc1c(C)c2cccnc2c2ncccc12.N[C@H]1CCCC[C@@H]1N.[Cl-].[Cl-].[Pt+2]	36
N[C@H]1CCCC[C@@H]1N.[Cl-].[Cl-].[Pt+2].c1cnc2c(c1)ccc1cccnc12	340
COc1ccc2c(c1)c(CC(=O)[O][Pt-2]13([OH])([NH2+]C4CCCCC4[NH2+]1)[n+]1cccc4c(C)c(C)c5ccc[n+]3c5c41)c(C)n2C(=O)c1ccc(Cl)cc1.O=[N+]([O-])[O-].O=[N+]([O-])[O-] (stereo not drawn)	40

====

tested on: MCF10A breast cell line (non-tumour derived); assay: In vitro cytotoxicity MTT assay, non-tumour MCF10A breast; type: cell-based; settings: MCF10A (non-cancerous), 72 h drug exposure, n = 3
List of GI50 values.
quantityKind: GI50 (nM)

> print(dat)
                                 smilescode                               assaytarget  numericvalue
1  CC(=O)Oc1ccccc1C(=O)[O-].Cc1c(C)c2cccnc2c2ncccc12.N[C@H]1CCCC[C@@H]1N.O=[N+]([O-])[O-].O=[N+]([O-])[O-].[OH-].[Pt+4]  MCF10A breast cell line (non-tumour derived)             9
2  Cc1c(C)c2cccnc2c2ncccc12.N[C@H]1CCCC[C@@H]1N.[Cl-].[Cl-].[Pt+2]  MCF10A breast cell line (non-tumour derived)            25
3  Cc1c(C)c2cccnc2c2ncccc12.N[C@H]1CCCC[C@@H]1N.O=[N+]([O-])[O-].O=[N+]([O-])[O-].[OH-].[OH-].[Pt+4]  MCF10A breast cell line (non-tumour derived)            61
4  N[C@H]1CCCC[C@@H]1N.[Cl-].[Cl-].[Pt+2].c1cnc2c(c1)ccc1cccnc12  MCF10A breast cell line (non-tumour derived)           240
